# Tested target: Beta-2 adrenergic receptor (Homo sapiens)
# Sequence (P07550 whole entry): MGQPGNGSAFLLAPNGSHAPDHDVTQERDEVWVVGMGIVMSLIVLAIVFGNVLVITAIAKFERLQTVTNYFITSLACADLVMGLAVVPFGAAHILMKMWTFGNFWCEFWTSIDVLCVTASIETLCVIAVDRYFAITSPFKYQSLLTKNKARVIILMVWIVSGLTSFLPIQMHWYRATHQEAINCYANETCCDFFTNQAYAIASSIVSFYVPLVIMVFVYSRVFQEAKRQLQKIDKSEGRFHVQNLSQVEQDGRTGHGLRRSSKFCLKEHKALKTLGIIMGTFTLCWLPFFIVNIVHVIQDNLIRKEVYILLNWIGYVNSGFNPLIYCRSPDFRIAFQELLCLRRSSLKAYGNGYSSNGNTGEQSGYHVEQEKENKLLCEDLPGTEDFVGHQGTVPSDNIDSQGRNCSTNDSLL
# Experiment summary: Antagonist activity at beta2 adrenergic receptor (unknown origin) expressed in HEK293 cell assessed as inhibition of isoproterenol-induced cAMP production preincubated for 15 mins followed by isoproterenol addition and measured after 15 mins
# Assay type: functional, cell-based
pIC50: −log10 of the molar value.
Readout label: pIC50

# annotated cases, reported pIC50 shown
Sample smiles | Readout label | Endpoint value
CC(C)NC[C@H](O)COc1ccccc1CCC(=O)NCCNC(=O)CCc1ccccc1OC[C@@H](O)CNC(C)C | pIC50 | 8.48
CC(C)NC[C@H](O)COc1ccccc1CCCC(=O)NCCNC(=O)CCCc1ccccc1OC[C@@H](O)CNC(C)C | pIC50 | 8.81
CC(C)NC[C@H](O)COc1ccccc1CCCCCCc1ccccc1OC[C@@H](O)CNC(C)C | pIC50 | 8.49
CC(C)NC[C@H](O)COc1ccccc1CCCNC(=O)NCCCc1ccccc1OC[C@@H](O)CNC(C)C | pIC50 | 8.80

(a) CC(C)NC[C@H](O)COc1ccccc1CCCCCCCCCCCCc1ccccc1OC[C@@H](O)CNC(C)C
(b) CC(C)NC[C@H](O)COc1ccccc1CCCn1cc(CNCc2cn(CCCc3ccccc3OC[C@@H](O)CNC(C)C)nn2)nn1
(c) CC(C)NC[C@H](O)COc1ccccc1CCNC(=O)NCCc1ccccc1OC[C@@H](O)CNC(C)C
(d) CC(C)NC[C@H](O)COc1ccccc1Cn1cc(CNCc2cn(Cc3ccccc3OC[C@@H](O)CNC(C)C)nn2)nn1
Endpoint returns the given compounds ordered by ascending pIC50. Lab note: record answer as labels in requested order.
a, d, c, b
